Record set: Ki | UniProt:Q9Y5Y4 | literature, multiple sources.

[
  {
    "smiles_text": "CCCc1nc2cc(N(Cc3ccccc3C(F)(F)F)S(=O)(=O)c3ccc(F)cc3)ccc2n1CC(=O)O",
    "qual": "<",
    "Ki (µM)": 1
  },
  {
    "smiles_text": "Cc1c(CC(=O)O)c2cccnc2n1Cc1ccc(C(F)(F)F)cc1C(F)(F)F",
    "qual": "=",
    "Ki (µM)": 0.029
  },
  {
    "smiles_text": "CCN(Cc1ccc(-c2nccnc2NS(=O)(=O)c2ccccc2Cl)cc1)c1ccccn1",
    "qual": "=",
    "Ki (µM)": 4.51
  },
  {
    "smiles_text": "Cc1c(-c2nn(CCOc3ccc(Cl)cc3)c(=O)c3ccccc23)c2cc(Cl)ccc2n1CC(=O)O",
    "qual": "<",
    "Ki (µM)": 0.1
  },
  {
    "smiles_text": "CCc1nn(Cc2ccc(-c3nc4cc(OC)ccc4[nH]3)cc2F)c(CC)c1CC(=O)O",
    "qual": "=",
    "Ki (µM)": 0.001
  },
  {
    "smiles_text": "COc1ccc(Sc2c(C)c(CC(=O)O)c3cc(Cl)c(F)cn23)cc1",
    "qual": "=",
    "Ki (µM)": 0.023
  },
  {
    "smiles_text": "CCc1nn(Cc2ccc(-c3nc4ccncc4[nH]3)cc2)c(CC)c1CC(=O)O",
    "qual": "=",
    "Ki (µM)": 0.0564
  },
  {
    "smiles_text": "O=C(O)CCCCc1cc2cc(-c3cc(Cc4ccc(F)cc4)on3)ccc2c(=O)n1-c1ccc(F)cc1",
    "qual": "=",
    "Ki (µM)": 0.0102
  }
]

* * *

pKi: −log10 of the molar value.
Record set: pKi | hCRTH2 receptor (Homo sapiens (Human), UniProt Q9Y5Y4) | literature, multiple sources.

[
  {
    "compound": "Cc1nn(Cc2ccc(-c3nc4ccccc4n3C)cc2)c(C)c1CC(=O)O",
    "pKi": 6.12
  },
  {
    "compound": "CCCc1nc2c(N(Cc3ccc(F)cc3)S(=O)(=O)c3cccc(F)c3)cccc2n1CC(=O)O",
    "pKi": "> 6.00"
  },
  {
    "compound": "Cc1cc(CC(=O)O)c2c(C)c(Cc3ccc(Cl)cc3)c(C)nc2c1",
    "pKi": "> 6.00"
  },
  {
    "compound": "Cc1nc2c(Cl)ccc(OC(C)C(=O)O)c2c(C)c1Cc1ccc(Cl)cc1 (centres unmarked)",
    "pKi": "> 7.00"
  },
  {
    "compound": "O=C(O)Cn1cc(C2NS(=O)(=O)c3ccccc32)c2ccccc21 (centres unmarked)",
    "pKi": "> 5.00"
  },
  {
    "compound": "Cc1c(Cc2ccccc2S(=O)(=O)C2CCCC2)c2cc(F)ccc2n1CC(=O)O",
    "pKi": 9.70
  },
  {
    "compound": "COc1cccc(-n2c(CCCCC(=O)O)cc3cc(C(=O)N[C@H](C)c4ccc(F)cc4)ccc3c2=O)c1",
    "pKi": 7.88
  },
  {
    "compound": "CCCc1nc2cc(N(CCOc3ccc(Cl)cc3)S(=O)(=O)c3ccc(F)cc3)ccc2n1CC(=O)O",
    "pKi": "> 7.00"
  }
]
